- Tested on: Dd2
- Assay comment: qHTS profiling for inhibitors of Plasmodium falciparum proliferation (AID 504749); also: nearly all actives have a fitted effect of over 60% in size
- Condition details: P. falciparum in erythrocytes, SYBR Green DNA, 72 h; series mostly up to 12.8 µM
Results filed as inconclusive are left out. The source made the active and inactive calls. Calls follow the shape of the dose curve; as a rule, active = well fitted inhibition curve with a large enough effect; inconclusive = small, poorly fitted or top-dose-only effect; inactive = flat fitted curve, though single readings scatter.
Please answer using one outcome listed in yes = active, no = inactive

>  <Molecule>
NS(=O)(=O)c1cc([C@@]2(O)NC(=O)c3ccccc32)ccc1Cl

>  <Group>
no

$$$$
>  <Molecule>
CC[C@]1(C)CC(=O)NC1=O

>  <Group>
no

$$$$
>  <Molecule>
Cc1cc(/C=C\c2ccc3cc(N(C)C)ccc3[n+]2C)c(C)n1-c1ccccc1

>  <Group>
yes

$$$$
>  <Molecule>
CN(C)[C@@H]1C(=O)C(C(N)=O)=C(O)[C@]2(O)C(=O)C3=C(O)c4c(O)ccc(Cl)c4[C@H](O)[C@H]3C[C@@H]12

>  <Group>
yes

$$$$
>  <Molecule>
CN1[C@@H]2CC[C@H]1CC(OC(=O)[C@@H](O)c1ccccc1)C2 (stereo partly drawn)

>  <Group>
no

$$$$
>  <Molecule>
C[C@H](NCCc1ccc(O)cc1)[C@@H](O)c1ccc(O)cc1

>  <Group>
no

$$$$

Q: Name the outcome recorded for "O=c1[nH]c(=O)n([C@@H]2C[C@H](O)[C@H](CO)O2)cc1I" in the assay.
Ans: no

Q: In this assay, the call recorded for "COc1ccc(C[C@@H]2c3cc(OC)c(OC)cc3CC[N@+]2(C)CCC(=O)OCCCCCOC(=O)CC[N@@+]2(C)CCc3cc(OC)c(OC)cc3[C@H]2Cc2ccc(OC)c(OC)c2)cc1OC" was what?
Ans: no

Q: # fetch the recorded call for "CCN(CC)CCC[C@H](C)Nc1c2ccc(Cl)cc2nc2ccc(OC)cc12" here
Ans: yes

Q: For this molecule, state the assay outcome: "CCC[C@H]1C(=O)N2C(N(C)C)=Nc3ccc(C)cc3N2C1=O"
Ans: no

Q: Per the records of this test, what outcome belongs to "CCN(CC)CCC[C@H](C)Nc1ccnc2cc(Cl)ccc12" ?
Ans: yes

###

- Tested target: Ubiquitin carboxyl-terminal hydrolase 1 (Homo sapiens)
- Assay comment: Inhibitors of USP1/UAF1: Pilot qHTS (AID 504865);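 also: rhodamine fluorescence freed from ubiquitin-rhodamine substrate followed over time; top concentration of the series differs between compounds; nearly all actives have a fitted effect of over 35% in size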
- Condition details: purified USP1/UAF1, Ub-rhodamine cleavage fluorescence; series mostly up to 54.9 µM
Results filed as inconclusive are left out. Calls of active or inactive are those of the source. The call rests on the fitted dose curve; in most records, active means well fitted inhibition curve with a large enough effect; inconclusive means small, poorly fitted or top-dose-only effect; inactive means flat fitted curve, though single readings scatter.
Assay metric: outcome

Answered cases to consult:
>  <Input smiles>
O=c1c(-c2cccc(Cl)c2)nc2cncnc2n1C1CC1

>  <Tested target>
Ubiquitin carboxyl-terminal hydrolase 1 (Homo sapiens)

>  <Recorded measurement>
inactive

$$$$
>  <Input smiles>
CN(C)C(=O)c1ccc(-c2ccc3ncnc(N(C)Cc4ccco4)c3c2)cc1

>  <Tested target>
Ubiquitin carboxyl-terminal hydrolase 1 (Homo sapiens)

>  <Recorded measurement>
inactive

$$$$
>  <Input smiles>
COCCn1c(=O)c(-c2ccccc2)nc2cncnc21

>  <Tested target>
Ubiquitin carboxyl-terminal hydrolase 1 (Homo sapiens)

>  <Recorded measurement>
inactive

$$$$
>  <Input smiles>
COc1cccc(Cn2c(=O)c(-c3cn(C)c4ccccc34)nc3cnc(OC)nc32)c1

>  <Tested target>
Ubiquitin carboxyl-terminal hydrolase 1 (Homo sapiens)

>  <Recorded measurement>
inactive

$$$$

# compound "CCNc1ncc2nc(-c3ccccc3)c(=O)n(CCOC)c2n1" ; its outcome = inactive

// outcome lookup, compound = "COc1ccc2[nH]cc(CCNc3ccnc(-c4ccc(N(C)C)cc4)n3)c2c1" , result: inactive
